Field: pIC50. Provide a value for each of the substances that follow.
# study-system: E. coli ExoI (Escherichia coli)
# Sequence (P04995 whole entry): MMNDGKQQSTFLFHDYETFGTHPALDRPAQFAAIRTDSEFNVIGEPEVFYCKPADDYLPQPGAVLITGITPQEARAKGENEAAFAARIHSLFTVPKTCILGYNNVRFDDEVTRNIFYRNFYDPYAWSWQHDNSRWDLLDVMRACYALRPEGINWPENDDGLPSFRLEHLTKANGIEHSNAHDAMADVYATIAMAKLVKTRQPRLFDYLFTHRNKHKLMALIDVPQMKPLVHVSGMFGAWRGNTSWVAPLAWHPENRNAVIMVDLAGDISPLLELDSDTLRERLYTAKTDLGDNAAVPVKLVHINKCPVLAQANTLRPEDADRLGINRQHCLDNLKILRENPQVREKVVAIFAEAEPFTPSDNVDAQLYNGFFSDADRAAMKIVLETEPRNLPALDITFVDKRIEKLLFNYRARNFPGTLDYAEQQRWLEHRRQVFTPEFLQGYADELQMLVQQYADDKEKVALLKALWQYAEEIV
# assay-procedure: Peptide competition-binding assay
pIC50: −log10 of the molar value. No end group written: not given here.

pIC50 reported for this substance WMDFDDDIP [WMDFDDDIP] : < 3.00

pIC50 reported for this substance WMDFDDDI [WMDFDDDI] : < 3.00

pIC50 reported for this substance WMDFDDD [WMDFDDD] : < 3.00
